assay_details: Pharmacokinetics and oral bioavailability in the rat
Format: in vivo
applied_conditions: plasma, NANOSUSPENSION IV 4.6 mg/kg, read-out: Cl total systemic clearance
readout_type: clearance (mL/min/kg)

>  <compound>
C[C@H](NC(=O)[C@@](C)(Cc1c[nH]c2ccccc12)NC(=O)OCc1cc2ccccc2o1)c1ccccc1 [The Compound]

>  <units_symbol>
mL/min/kg

>  <data_value>
27.8

$$$$

====

assay_details: Brain penetration in the rat using HPLC assay
Format: in vivo
applied_conditions: brain, PO 21.4 mg/kg, read-out: time of highest brain concentration (converted)
readout_type: Tmax (h)

>  <compound>
C[C@H](NC(=O)[C@@](C)(Cc1c[nH]c2ccccc12)NC(=O)OCc1cc2ccccc2o1)c1ccccc1 [The Compound]

>  <units_symbol>
h

>  <data_value>
2

$$$$

====

assay_details: Brain penetration in the rat using HPLC assay
Assay type: in vivo
applied_conditions: plasma, iv, 4.5 mg/kg, IV bolus 4.5 mg/kg, 4 h, read-out: Plasma Conc. (PC)

>  <smi>
C[C@H](NC(=O)[C@@](C)(Cc1c[nH]c2ccccc12)NC(=O)OCc1cc2ccccc2o1)c1ccccc1

>  <concentration at 4 h (ng/mL)>
43

$$$$

====

assay_details: Brain penetration in the rat using HPLC assay
Assay type: in vivo
applied_conditions: brain, po, 21.4 mg/kg, PO 21.4 mg/kg, 4 h, read-out: BC/PC Ratio

>  <smi>
C[C@H](NC(=O)[C@@](C)(Cc1c[nH]c2ccccc12)NC(=O)OCc1cc2ccccc2o1)c1ccccc1

>  <Kp at 4 h>
0.29

$$$$

====

assay_details: Pharmacokinetics and oral bioavailability in the rat
Format: in vivo
applied_conditions: plasma, NANOSUSPENSION PO 18.4 mg/kg, read-out: % F absolute oral bioavailability
readout_type: bioavailability

>  <molecule>
C[C@H](NC(=O)[C@@](C)(Cc1c[nH]c2ccccc12)NC(=O)OCc1cc2ccccc2o1)c1ccccc1 [The Compound]

>  <readout_type>
bioavailability

>  <data_value>
47%

$$$$

====

assay_details: Brain penetration in the rat using HPLC assay
Assay type: in vivo
applied_conditions: brain, po, 21.4 mg/kg, PO 21.4 mg/kg in PEG-400/EtOH/Water, 0.25 h, read-out: Brain Conc. (BC)

>  <molecule>
C[C@H](NC(=O)[C@@](C)(Cc1c[nH]c2ccccc12)NC(=O)OCc1cc2ccccc2o1)c1ccccc1 [The Compound]

>  <concentration at 0.25 h / ng/g>
31

$$$$

====

assay_details: Pharmacokinetics and oral bioavailability in the rat
Type: in vivo
applied_conditions: plasma, NANOSUSPENSION IV 4.6 mg/kg, read-out: AUC zero to infinite time

>  <smi>
C[C@H](NC(=O)[C@@](C)(Cc1c[nH]c2ccccc12)NC(=O)OCc1cc2ccccc2o1)c1ccccc1

>  <AUC(0-inf) (ng·h/mL)>
2790

$$$$

====

assay_details: Brain penetration in the rat using HPLC assay
Type: in vivo
applied_conditions: plasma, po, 21.4 mg/kg, PO 21.4 mg/kg, 8 h, read-out: Plasma Conc. (PC)
readout_type: concentration at 8 h (ng/mL)

>  <smi>
C[C@H](NC(=O)[C@@](C)(Cc1c[nH]c2ccccc12)NC(=O)OCc1cc2ccccc2o1)c1ccccc1

>  <units_symbol>
ng/mL

>  <data_value>
108

$$$$
